For each of the molecules below, state its MIC.
system: Candida albicans ATCC 10231(R) (strain A); assay: MIC determination, in vitro antifungal assay (CLSI M27-A3); type: cell-based; settings: MIC-0 (no visible growth), 48 h at 35° C.
One number for each entry, in µg/mL.

Please report MIC for every entry that follows.
1. Fc1cc(F)cc(N/N=C/c2ccc(-c3cccc(/C=N/Nc4cc(F)cc(F)c4)c3)cc2)c1 [Compound 22a]
2. Fc1ccc(N/N=C/c2ccc(-c3cccc(/C=N/Nc4ccc(F)cc4F)c3)cc2)c(F)c1 [Compound 20a]

[3.9, 3.9]

Please report MIC for every entry that follows.
1. Fc1cccc(N/N=C/c2ccc(-c3cccc(/C=N/Nc4cccc(F)c4)c3)cc2)c1 [Compound 12a]
2. C(=N\Nc1ccccc1)/c1ccc(-c2cccc(/C=N/Nc3ccccc3)c2)cc1

1. 1.95
2. 1.95
